Assembled from different publications: pIC50 for Lactase/phlorizin hydrolase (Rattus norvegicus, UniProt Q02401).
pIC50: −log10 of the molar value.
REPORTED METRIC: pIC50

P = Cc1ccc(S(=O)(=O)Nc2ccc3c(c2)C(=O)N(CCNc2ccc(O)c(O)c2)C3=O)cc1
Q = OCC(O)[C@H]1N[C@H](CO)[C@@H](O)[C@@H]1O (mixture of isomers)
R = OC[C@@H]1NC[C@H](O)[C@H]1O
S = Cc1ccc(S(=O)(=O)Nc2ccc3c(c2)C(=O)N(CCNc2ccccc2)C3=O)cc1
Consider the compounds listed above. Rank them by pIC50 in ascending numerical order. Output spec: a listing of the labels in the requested order. R, S, P, Q
